These data points were gathered from PubChem BioAssay AID588519.

molecular target: Genome polyprotein (Poliovirus type 1 (strain Mahoney)) (UniProt P03300); experiment: poliovirus RdRp elongation inhibitors, primary screen, biochemical, fluorescence polarization, total intensity (AID 588519); conditions: poliovirus polymerase elongation, measured here: total intensity read-out, stronger effect = lower value, compound at 16.7 µg/mL
Sequence (P03300 1749-2209 limits assumed): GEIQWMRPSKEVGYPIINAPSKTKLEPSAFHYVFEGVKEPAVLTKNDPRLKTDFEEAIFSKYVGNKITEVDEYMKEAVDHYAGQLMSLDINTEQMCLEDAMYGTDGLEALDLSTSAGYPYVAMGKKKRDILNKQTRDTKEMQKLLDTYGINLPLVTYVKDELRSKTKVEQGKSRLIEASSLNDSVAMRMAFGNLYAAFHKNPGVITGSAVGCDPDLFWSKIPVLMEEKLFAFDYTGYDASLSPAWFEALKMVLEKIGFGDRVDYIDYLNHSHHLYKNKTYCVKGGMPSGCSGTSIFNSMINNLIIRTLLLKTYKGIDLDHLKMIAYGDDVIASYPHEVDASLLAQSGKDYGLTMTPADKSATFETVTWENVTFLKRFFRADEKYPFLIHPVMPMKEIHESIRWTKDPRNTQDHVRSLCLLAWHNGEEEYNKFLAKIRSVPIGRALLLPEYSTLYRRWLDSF
Out of some 150,000 compounds screened, about 1,000 (0.67%) were called active. This is one part of a sample in which actives are shown more often than they occur.
quantity_name: % elongation (%)
Reply numerically in %, unit not repeated.

Task: % elongation for Cc1ccc(C)c(NC(=O)C(c2ccccc2)N2CCCCC2C(N)=O)c1 (stereo not drawn) ?
Output: 103

Task: Please give the measured % elongation for this compound: C=CCn1ccc2c(OCC(=O)c3ccccc3)cccc2c1=O
Output: 101

Task: Please give the measured % elongation for this compound: CC(NC(=O)Nc1cccnc1)N1C(=O)C2C3C=CC(C3)C2C1=O (stereo not drawn)
Output: 103

---

biological target: Genome polyprotein (Poliovirus type 1 (strain Mahoney)) (UniProt P03300); experiment: poliovirus RdRp elongation inhibitors, primary screen, biochemical, fluorescence polarization, total intensity (AID 588519); conditions: poliovirus polymerase elongation, stronger effect = lower value, compound at 16.7 µg/mL
In all, about 150,000 compounds went through this assay and about 1,000 (0.67%) were called active. The sample holds actives, similar compounds and a random draw of the others, so the mix is not that of the screen.
Could you please report measured % elongation for the items listed next?
Only the number, expressed in %, is required.

Task: Give the measured % elongation of CC(C)(C)NC(=O)C1N(C2CC2)C(=O)C2C(C(=O)NCc3ccccc3)C3C=CC21O3 (configuration not stated) .
Output: 103

Task: // % elongation lookup, key: O=S(=O)(NC1CCCCC1N1CCCCC1)c1ccc(Cl)cc1 (configuration not stated)
Output: 104

Task: Which % elongation is listed for O=C(/C=C/c1c(Cl)nc2sccn12)NCc1ccc2c(c1)OCO2 ?
Output: 97

Task: Dear colleague, I am looking for the recorded % elongation of the following compound: Cc1cc(C)c2nc3nc(C)cc(C)c3c(N)c2c1
Output: 90

Task: Bench note: what % elongation did O=C(CSc1ccc(Br)cc1)c1ccco1 show?
Output: 97

Task: Value lookup for % elongation; key = CSc1ccc(/C=N/NC(N)=S)cc1
Output: 98

Task: Which % elongation value belongs to Nc1ccc(N=C2C(=O)Nc3ccccc32)cc1 ?
Output: 99

Task: Need % elongation, item O=C(Oc1ccc(Br)cc1)c1ccco1
Output: 101

Task: Quick one: % elongation for O=C(Nc1ccc(S(=O)(=O)C(F)F)cc1)c1cccnc1N1CCCC1 ?
Output: 102

Task: Requested field: % elongation. Item: CCN(CC)c1nc(C#N)nc(OC)n1
Output: 87

Task: Quick check: % elongation of O=C(CSc1nc2c(c(=O)[nH]1)CN(Cc1ccc3c(c1)OCO3)CC2)Nc1cc(F)ccc1F ?
Output: 108

Task: Data request, read-out % elongation, for Cc1cc(=O)[nH]c(SC(C)C(=O)NC2CCCCC2)n1 (configuration not stated)
Output: 99

Task: Give the measured % elongation of COc1cccc(CN2CCc3nc(SCC(=O)Nc4ccccc4)[nH]c(=O)c3C2)c1 .
Output: 107

Task: May I ask what % elongation has been recorded for CCOc1ccc(OCC(=O)OC(C)C(=O)Nc2ncc(Cl)cc2Cl)cc1 (configuration not stated) ?
Output: 106

Task: Any idea what % elongation was measured for CCNC(=O)C1CCCN(S(=O)(=O)N(CC)c2ccc(OCC)cc2)C1 (configuration not stated) ?
Output: 103

Task: Which value of % elongation has been reported for O=C(Nc1ccc(Cl)cc1Cl)C1CC(=O)N(C2CCCCC2)C1 (configuration not stated) in the records?
Output: 105

Task: Reported % elongation for Cc1cc(C)c2nc(-c3ccco3)cc(C(=O)O)c2c1 : what is it?
Output: 96
